# target-desc: 5-HT2A receptor (Homo sapiens, UniProt P28223)
# Construct: expressed in transfected cells
# Sequence (P28223 whole entry): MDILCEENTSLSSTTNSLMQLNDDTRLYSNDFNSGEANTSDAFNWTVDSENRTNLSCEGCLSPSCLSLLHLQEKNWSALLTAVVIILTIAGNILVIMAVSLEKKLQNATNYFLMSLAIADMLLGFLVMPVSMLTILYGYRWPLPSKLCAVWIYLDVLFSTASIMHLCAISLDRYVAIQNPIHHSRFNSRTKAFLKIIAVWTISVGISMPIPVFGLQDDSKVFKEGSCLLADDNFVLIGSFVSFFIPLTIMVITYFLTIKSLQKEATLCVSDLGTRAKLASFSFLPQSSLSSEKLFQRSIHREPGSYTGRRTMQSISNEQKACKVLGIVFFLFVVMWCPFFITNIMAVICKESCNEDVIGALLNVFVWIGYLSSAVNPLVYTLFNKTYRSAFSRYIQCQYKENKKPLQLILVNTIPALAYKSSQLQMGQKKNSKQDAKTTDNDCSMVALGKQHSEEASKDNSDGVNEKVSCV
# experiment: PDSP secondary binding, 5-HT2A
# Design: species or system human or rodent
# condition-context: calculated Ki, secondary binding assay; read-out: Ki 5-HT2A
pKi: −log10 of the molar value.

>  <compound>
CCCCNc1ncc2c(-c3ccc(CN4CCN(C)CC4)cc3)cn([C@H]3CC[C@H](O)CC3)c2n1 [UNC2025C, UNC2025]

>  <pKi>
6.40

$$$$

====

# Tested on: cloned human or rodent CNS receptors, channels, and transporters (PDSP panel)
# experiment: PDSP GPCR panel primary binding assays at 10 μM
# condition-context: Receptor BZP Rat Brain Site; primary assay, 10 μM
# Experimental: GPCR panel: Screening against the receptors within the PDSP panel offers an assessment of off-target pharmacological activity at cloned human or rodent CNS receptors, channels, and transporters that could confound CNS-related phenotypes. A total of 46–47 primary binding assays were run in quadruplicate on these compounds at 10 μM, with follow-up secondary binding assays in 11-point dose-response in triplicate for select compounds versus select receptors. […]
A collection of molecules and their measured Inhibition 4

>  <molecule>
O=c1oc2ccccc2cc1-c1cn2cc(Cc3ccc(F)cc3)sc2n1 [UNC10302680A, iMDK]

>  <Inhibition 4, %>
3.1

$$$$
>  <molecule>
CCCCNc1ncc2c(-c3ccc(CN4CCN(C)CC4)cc3)cn([C@H]3CC[C@H](O)CC3)c2n1 [UNC2025C, UNC2025]

>  <Inhibition 4, %>
13.44

$$$$
>  <molecule>
c1cn2cc(-c3ccc4cn[nH]c4c3)nc(Nc3ccc(N4CCOCC4)cc3)c2n1 [UNC10302678A, Entospletinib (GS-9973)]

>  <Inhibition 4, %>
10.21

$$$$
>  <molecule>
Cl.NC(=O)c1cnc(N[C@@H]2CCCC[C@@H]2N)nc1Nc1cccc(-n2nccn2)c1 [UNC10302682A, P505-15 (PRT06207 HCl)]

>  <Inhibition 4, %>
13.06

$$$$

====

# target-desc: cloned human or rodent CNS receptors, channels, and transporters (PDSP panel) (Homo sapiens, UniProt P41145)
# Construct: expressed in transfected cells
# Sequence (P41145 whole entry): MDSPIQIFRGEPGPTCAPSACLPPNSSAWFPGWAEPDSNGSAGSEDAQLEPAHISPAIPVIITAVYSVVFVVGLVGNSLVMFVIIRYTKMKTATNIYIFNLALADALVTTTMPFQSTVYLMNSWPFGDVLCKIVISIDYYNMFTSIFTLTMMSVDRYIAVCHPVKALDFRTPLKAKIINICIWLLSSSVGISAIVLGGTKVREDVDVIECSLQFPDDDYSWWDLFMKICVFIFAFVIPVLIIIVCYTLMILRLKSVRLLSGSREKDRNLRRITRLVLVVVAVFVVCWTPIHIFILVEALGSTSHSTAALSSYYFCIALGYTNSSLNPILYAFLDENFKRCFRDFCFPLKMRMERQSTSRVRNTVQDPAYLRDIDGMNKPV
# experiment: PDSP GPCR panel primary binding assays at 10 μM
# condition-context: Receptor KOR; primary assay, 10 μM; mean of Inhibition 1-4
readout-kind: Mean %

>  <molecule>
O=c1oc2ccccc2cc1-c1cn2cc(Cc3ccc(F)cc3)sc2n1 [UNC10302680A, iMDK]

>  <recorded-value>
-17.52%

$$$$
>  <molecule>
c1cn2cc(-c3ccc4cn[nH]c4c3)nc(Nc3ccc(N4CCOCC4)cc3)c2n1 [UNC10302678A, Entospletinib (GS-9973)]

>  <recorded-value>
-39.02%

$$$$
>  <molecule>
CCCCNc1ncc2c(-c3ccc(CN4CCN(C)CC4)cc3)cn([C@H]3CC[C@H](O)CC3)c2n1 [UNC2025C, UNC2025]

>  <recorded-value>
-22.14%

$$$$
>  <molecule>
Cl.NC(=O)c1cnc(N[C@@H]2CCCC[C@@H]2N)nc1Nc1cccc(-n2nccn2)c1 [UNC10302682A, P505-15 (PRT06207 HCl)]

>  <recorded-value>
-21.78%

$$$$

====

# Test system: cloned human or rodent CNS receptors, channels, and transporters (PDSP panel)
# experiment: PDSP GPCR panel primary binding assays at 10 μM
# condition-context: Receptor BZP Rat Brain Site; primary assay, 10 μM

>  <compound>
O=c1oc2ccccc2cc1-c1cn2cc(Cc3ccc(F)cc3)sc2n1 [UNC10302680A, iMDK]

>  <target-desc>
cloned human or rodent CNS receptors, channels, and transporters (PDSP panel)

>  <Inhibition 1 / %>
-12.35

$$$$
>  <compound>
CCCCNc1ncc2c(-c3ccc(CN4CCN(C)CC4)cc3)cn([C@H]3CC[C@H](O)CC3)c2n1 [UNC2025C, UNC2025]

>  <target-desc>
cloned human or rodent CNS receptors, channels, and transporters (PDSP panel)

>  <Inhibition 1 / %>
-0.21

$$$$
>  <compound>
Cl.NC(=O)c1cnc(N[C@@H]2CCCC[C@@H]2N)nc1Nc1cccc(-n2nccn2)c1 [UNC10302682A, P505-15 (PRT06207 HCl)]

>  <target-desc>
cloned human or rodent CNS receptors, channels, and transporters (PDSP panel)

>  <Inhibition 1 / %>
6.42

$$$$
>  <compound>
c1cn2cc(-c3ccc4cn[nH]c4c3)nc(Nc3ccc(N4CCOCC4)cc3)c2n1 [UNC10302678A, Entospletinib (GS-9973)]

>  <target-desc>
cloned human or rodent CNS receptors, channels, and transporters (PDSP panel)

>  <Inhibition 1 / %>
2.63

$$$$

====

# System: cloned human or rodent CNS receptors, channels, and transporters (PDSP panel)
# experiment: PDSP GPCR panel primary binding assays at 10 μM
# condition-context: Receptor BZP Rat Brain Site; primary assay, 10 μM; mean of Inhibition 1-4

>  <molecule>
Cl.NC(=O)c1cnc(N[C@@H]2CCCC[C@@H]2N)nc1Nc1cccc(-n2nccn2)c1 [UNC10302682A, P505-15 (PRT06207 HCl)]

>  <Mean % / %>
7.65

$$$$
>  <molecule>
CCCCNc1ncc2c(-c3ccc(CN4CCN(C)CC4)cc3)cn([C@H]3CC[C@H](O)CC3)c2n1 [UNC2025C, UNC2025]

>  <Mean % / %>
6.35

$$$$
>  <molecule>
c1cn2cc(-c3ccc4cn[nH]c4c3)nc(Nc3ccc(N4CCOCC4)cc3)c2n1 [UNC10302678A, Entospletinib (GS-9973)]

>  <Mean % / %>
1.33

$$$$
>  <molecule>
O=c1oc2ccccc2cc1-c1cn2cc(Cc3ccc(F)cc3)sc2n1 [UNC10302680A, iMDK]

>  <Mean % / %>
-9.91

$$$$

====

Below, each of the compounds is paired with its reported Inhibition 4 value.
# target-desc: cloned human or rodent CNS receptors, channels, and transporters (PDSP panel) (Homo sapiens)
# Construct: expressed in transfected cells
# experiment: PDSP GPCR panel primary binding assays at 10 μM
# condition-context: H1; primary assay, replicate 4
readout-kind: Inhibition 4 (%)

>  <compound>
CCC(=O)N1CCC(NC(=O)Nc2ccc(OC(F)(F)F)cc2)CC1 [UNC10302681A, TPPU]

>  <recorded-value>
48.14

$$$$
>  <compound>
CC(=O)N1CCC(NC(=O)NC23CC4CC(CC(C4)C2)C3)CC1 [UNC10302683A, AR9281]

>  <recorded-value>
52.43

$$$$
>  <compound>
CNc1nc(C)nc(N[C@H]2CCC[C@@H](C(=O)NCc3ccc(C#N)cc3C(F)(F)F)C2)n1 [UNC10302679A, GSK2256294A]

>  <recorded-value>
50.11

$$$$
>  <compound>
O=C(NC1CC1)C(=O)C(Cc1ccccc1)NC(=O)[C@H]1CCC(=O)N1Cc1ccccc1 (stereo partly shown) [UNC10302676A, ABT-957 (Alicapistat)]

>  <recorded-value>
33.86

$$$$

====

# target-desc: cloned human or rodent CNS receptors, channels, and transporters (PDSP panel) (Homo sapiens)
# Construct: expressed in transfected cells
# experiment: PDSP GPCR panel primary binding assays at 10 μM
# condition-context: H1; primary assay, replicate 2
readout-kind: Inhibition 2 (%)

>  <compound>
CCC(=O)N1CCC(NC(=O)Nc2ccc(OC(F)(F)F)cc2)CC1 [UNC10302681A, TPPU]

>  <unit-of-measurement>
%

>  <recorded-value>
87.07

$$$$
>  <compound>
CC(=O)N1CCC(NC(=O)NC23CC4CC(CC(C4)C2)C3)CC1 [UNC10302683A, AR9281]

>  <unit-of-measurement>
%

>  <recorded-value>
86

$$$$
>  <compound>
CNc1nc(C)nc(N[C@H]2CCC[C@@H](C(=O)NCc3ccc(C#N)cc3C(F)(F)F)C2)n1 [UNC10302679A, GSK2256294A]

>  <unit-of-measurement>
%

>  <recorded-value>
75.46

$$$$
>  <compound>
O=C(NC1CC1)C(=O)C(Cc1ccccc1)NC(=O)[C@H]1CCC(=O)N1Cc1ccccc1 (stereo partly shown) [UNC10302676A, ABT-957 (Alicapistat)]

>  <unit-of-measurement>
%

>  <recorded-value>
50.46

$$$$

====

# target-desc: cloned human or rodent CNS receptors, channels, and transporters (PDSP panel) (Homo sapiens, UniProt P35372)
# Construct: expressed in transfected cells
# Sequence (P35372 whole entry): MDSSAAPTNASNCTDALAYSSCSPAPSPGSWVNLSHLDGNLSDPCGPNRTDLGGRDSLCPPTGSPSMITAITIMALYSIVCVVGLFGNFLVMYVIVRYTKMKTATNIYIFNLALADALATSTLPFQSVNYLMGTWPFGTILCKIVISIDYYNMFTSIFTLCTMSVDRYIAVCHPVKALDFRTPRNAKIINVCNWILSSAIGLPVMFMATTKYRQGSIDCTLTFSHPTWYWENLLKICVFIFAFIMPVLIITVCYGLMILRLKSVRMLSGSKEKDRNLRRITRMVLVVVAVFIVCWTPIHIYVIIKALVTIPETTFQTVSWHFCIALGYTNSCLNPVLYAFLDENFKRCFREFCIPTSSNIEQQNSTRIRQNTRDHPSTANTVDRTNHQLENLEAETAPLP
# experiment: PDSP GPCR panel primary binding assays at 10 μM
# condition-context: MOR; primary assay, replicate 3
readout-kind: Inhibition 3

>  <compound>
CCC(=O)N1CCC(NC(=O)Nc2ccc(OC(F)(F)F)cc2)CC1 [UNC10302681A, TPPU]

>  <recorded-value>
10.7%

$$$$
>  <compound>
CNc1nc(C)nc(N[C@H]2CCC[C@@H](C(=O)NCc3ccc(C#N)cc3C(F)(F)F)C2)n1 [UNC10302679A, GSK2256294A]

>  <recorded-value>
1.4%

$$$$
>  <compound>
CC(=O)N1CCC(NC(=O)NC23CC4CC(CC(C4)C2)C3)CC1 [UNC10302683A, AR9281]

>  <recorded-value>
4.76%

$$$$
>  <compound>
O=C(NC1CC1)C(=O)C(Cc1ccccc1)NC(=O)[C@H]1CCC(=O)N1Cc1ccccc1 (stereo partly shown) [UNC10302676A, ABT-957 (Alicapistat)]

>  <recorded-value>
-4.06%

$$$$
